Data origin, for the record: patent US20220010021A1

Please go through the items and note down their Emax.
Target: human FGFR1c + KLB receptor complex on HEK293 iLite FGF21 reporter cells (human, UniProt P11362 22-822; Q86Z14 1-1044)
Sequence (P11362 22-822, chain 1 of 2): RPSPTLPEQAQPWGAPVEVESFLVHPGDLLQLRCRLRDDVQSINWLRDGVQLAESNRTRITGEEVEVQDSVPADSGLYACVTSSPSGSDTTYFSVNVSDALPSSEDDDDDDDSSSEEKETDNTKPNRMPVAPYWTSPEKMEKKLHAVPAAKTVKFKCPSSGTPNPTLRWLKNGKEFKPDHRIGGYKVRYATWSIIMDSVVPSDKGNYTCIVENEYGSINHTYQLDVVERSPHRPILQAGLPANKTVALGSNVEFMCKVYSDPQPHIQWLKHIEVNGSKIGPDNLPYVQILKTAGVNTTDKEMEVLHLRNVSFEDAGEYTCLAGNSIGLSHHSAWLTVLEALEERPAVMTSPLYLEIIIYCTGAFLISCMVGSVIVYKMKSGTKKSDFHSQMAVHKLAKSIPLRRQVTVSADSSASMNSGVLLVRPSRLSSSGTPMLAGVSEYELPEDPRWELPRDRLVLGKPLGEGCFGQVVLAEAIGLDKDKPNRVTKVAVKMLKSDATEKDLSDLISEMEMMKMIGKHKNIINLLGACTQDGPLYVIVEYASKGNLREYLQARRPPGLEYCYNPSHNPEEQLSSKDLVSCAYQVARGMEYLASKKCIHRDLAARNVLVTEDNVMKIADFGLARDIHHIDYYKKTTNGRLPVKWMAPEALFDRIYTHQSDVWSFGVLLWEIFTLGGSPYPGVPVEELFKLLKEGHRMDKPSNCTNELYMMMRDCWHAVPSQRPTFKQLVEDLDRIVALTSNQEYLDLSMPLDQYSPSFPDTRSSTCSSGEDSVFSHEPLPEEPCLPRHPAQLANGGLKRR
Sequence (Q86Z14 whole entry, chain 2 of 2): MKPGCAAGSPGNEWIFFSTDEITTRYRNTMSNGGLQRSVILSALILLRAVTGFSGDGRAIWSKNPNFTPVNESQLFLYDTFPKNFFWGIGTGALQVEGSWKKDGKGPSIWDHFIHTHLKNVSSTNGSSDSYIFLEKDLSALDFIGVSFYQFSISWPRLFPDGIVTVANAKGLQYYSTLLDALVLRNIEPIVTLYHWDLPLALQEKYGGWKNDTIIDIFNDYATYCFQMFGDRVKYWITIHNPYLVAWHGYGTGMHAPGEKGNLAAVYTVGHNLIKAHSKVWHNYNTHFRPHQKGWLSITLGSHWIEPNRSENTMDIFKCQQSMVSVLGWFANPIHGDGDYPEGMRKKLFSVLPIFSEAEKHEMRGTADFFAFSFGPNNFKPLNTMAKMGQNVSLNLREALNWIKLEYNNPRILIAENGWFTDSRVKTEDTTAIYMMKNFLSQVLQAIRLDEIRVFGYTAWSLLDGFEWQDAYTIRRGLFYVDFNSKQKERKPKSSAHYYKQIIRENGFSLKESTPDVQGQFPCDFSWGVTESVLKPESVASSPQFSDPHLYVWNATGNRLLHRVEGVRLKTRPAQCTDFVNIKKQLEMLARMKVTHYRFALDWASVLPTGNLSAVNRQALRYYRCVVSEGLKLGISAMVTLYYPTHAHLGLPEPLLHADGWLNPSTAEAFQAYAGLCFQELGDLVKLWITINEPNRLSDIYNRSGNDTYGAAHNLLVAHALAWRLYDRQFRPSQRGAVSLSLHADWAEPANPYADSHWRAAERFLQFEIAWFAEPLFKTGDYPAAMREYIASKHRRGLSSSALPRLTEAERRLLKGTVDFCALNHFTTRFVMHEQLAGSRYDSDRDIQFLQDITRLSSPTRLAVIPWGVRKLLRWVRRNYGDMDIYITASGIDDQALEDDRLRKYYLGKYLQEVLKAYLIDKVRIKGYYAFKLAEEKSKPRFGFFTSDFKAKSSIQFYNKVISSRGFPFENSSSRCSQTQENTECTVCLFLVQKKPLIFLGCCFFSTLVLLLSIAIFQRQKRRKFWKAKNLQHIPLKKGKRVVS
Experiment: cell-based or functional assay
Please reply with the bare figure in % and do not write the unit itself.

Answer with reported Emax of Ab0202 (antibody, IgG4, V domains shown, IgG4 PE) VH: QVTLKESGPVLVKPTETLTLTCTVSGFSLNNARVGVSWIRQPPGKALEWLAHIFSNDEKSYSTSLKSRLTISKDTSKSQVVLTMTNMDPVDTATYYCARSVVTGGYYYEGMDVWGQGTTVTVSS VL: SYVLTQPPSVSVAPGQTARITCGGNNIGSESVHWYQQKPGQAPVLVVYYDSDRPSGIPERFSGSNSGNTATLTISRVEAGDEADYYCQVWDGNSDHVVFGGGTKLTVLG
1510

Quote Emax reported for Ab0206 (antibody, IgG4, V domains shown) VH: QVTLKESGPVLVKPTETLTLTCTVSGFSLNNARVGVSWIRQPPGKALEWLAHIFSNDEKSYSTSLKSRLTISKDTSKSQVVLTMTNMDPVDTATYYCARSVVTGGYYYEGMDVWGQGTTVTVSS VL: SYVLTQPPSVSVAPGQTARITCGGNNIGSESVHWYQQKPGQAPVLVVYDDSDRPSGIPERFSGSNSGNTATLTISRVEAGDEADYYCQVWDGNSEHVVFGGGTKLTVLG please.
2640

Please report the measured Emax for Ab0313 (antibody, IgG4, V domains shown) VH: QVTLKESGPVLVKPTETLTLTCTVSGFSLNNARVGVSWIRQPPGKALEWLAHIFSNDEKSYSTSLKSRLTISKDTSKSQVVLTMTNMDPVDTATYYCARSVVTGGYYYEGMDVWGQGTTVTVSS VL: SYVLTQPPSVSVAPGQTARITCGGNNIGSESVHWYQQKPGQAPVLVVYDDSDRPSGIPERFSGSNSGNTATLTISRVEAGDEADYYCQVWTGESDHVVFGGGTKLTVLG
1130
